For each of the compounds below, state its MIC.
- Test system: PAO1 mutant MIN4_RW01_4, pmrB(Y98N)
- test.details: MIC, Sensititre custom plate
- Format: cell-based
- protocol.conditions: Pseudomonas aeruginosa, PAO1, read-out: MIC, Sensititre

**Q:** Which MIC is listed for C[C@H]1[C@H](NC(=O)/C(=N\OC(C)(C)C(=O)O)c2csc(N)n2)C(=O)N1S(=O)(=O)O ?
**A:** ≤ 2 µg/mL

**Q:** Which MIC is listed for CO/N=C(\C(=O)N[C@@H]1C(=O)N2C(C(=O)[O-])=C(C[N+]3(C)CCCC3)CS[C@H]12)c1csc(N)n1 [Cefepime, cefepime] ?
**A:** ≤ 1 µg/mL

**Q:** Which MIC is listed for CC(C)(O/N=C(\C(=O)N[C@@H]1C(=O)N2C(C(=O)[O-])=C(C[n+]3ccccc3)CS[C@H]12)c1csc(N)n1)C(=O)O ?
**A:** ≤ 1 µg/mL

====

- Test system: PAO1 mutant MIN1_RW01_1, pmrB(Y98N)
- test.details: MIC, Sensititre custom plate
- Type: cell-based
- protocol.conditions: Pseudomonas aeruginosa, PAO1, read-out: MIC, Sensititre
endpoint.name: MIC

**Q:** Which MIC is listed for CO/N=C(\C(=O)N[C@@H]1C(=O)N2C(C(=O)[O-])=C(C[N+]3(C)CCCC3)CS[C@H]12)c1csc(N)n1 [Cefepime, cefepime] ?
**A:** ≤ 1 µg/mL

**Q:** Which MIC is listed for C[C@H]1[C@H](NC(=O)/C(=N\OC(C)(C)C(=O)O)c2csc(N)n2)C(=O)N1S(=O)(=O)O [Aztreonam, aztreonam] ?
**A:** ≤ 2 µg/mL

**Q:** Which MIC is listed for CC(C)(O/N=C(\C(=O)N[C@@H]1C(=O)N2C(C(=O)[O-])=C(C[n+]3ccccc3)CS[C@H]12)c1csc(N)n1)C(=O)O [Ceftazidime, ceftazidime] ?
**A:** ≤ 1 µg/mL

====

- System: PAO1 mutant MIN2_RW01_3, parS(V152A)
- test.details: MIC, Sensititre custom plate
- Type: cell-based
- protocol.conditions: Pseudomonas aeruginosa, PAO1, read-out: MIC, Sensititre
endpoint.name: MIC (µg/mL)
Use µg/mL as the unit, but write only the number.

**Q:** Which MIC is listed for NCC[C@H](O)C(=O)N[C@@H]1C[C@H](N)[C@@H](O[C@H]2O[C@H](CN)[C@@H](O)[C@H](O)[C@H]2O)[C@H](O)[C@H]1O[C@H]1O[C@H](CO)[C@@H](O)[C@H](N)[C@H]1O ?
**A:** 8

**Q:** Which MIC is listed for C[C@H]1[C@H](NC(=O)/C(=N\OC(C)(C)C(=O)O)c2csc(N)n2)C(=O)N1S(=O)(=O)O ?
**A:** 4

**Q:** Which MIC is listed for NC[C@H]1O[C@H](O[C@H]2[C@H](O)[C@@H](O[C@H]3O[C@H](CO)[C@@H](O)[C@H](N)[C@H]3O)[C@H](N)C[C@@H]2N)[C@H](N)C[C@@H]1O ?
**A:** 1

**Q:** Which MIC is listed for CC1(C)S[C@@H]2[C@H](NC(=O)[C@H](C(=O)O)c3ccsc3)C(=O)N2[C@H]1C(=O)O ?
**A:** 16

====

- Tested on: PAO1 mutant MIN4_RW01_2, pmrB(F124S)
- test.details: microbe, parasite or virus in culture
- Assay type: cell-based
- protocol.conditions: Pseudomonas aeruginosa, PAO1, read-out: MIC, Sensititre
endpoint.name: MIC

**Q:** Which MIC is listed for C[C@H]1[C@H](NC(=O)/C(=N\OC(C)(C)C(=O)O)c2csc(N)n2)C(=O)N1S(=O)(=O)O ?
**A:** ≤ 2 µg/mL

**Q:** Which MIC is listed for CO/N=C(\C(=O)N[C@@H]1C(=O)N2C(C(=O)[O-])=C(C[N+]3(C)CCCC3)CS[C@H]12)c1csc(N)n1 [Cefepime, cefepime] ?
**A:** ≤ 1 µg/mL

**Q:** Which MIC is listed for CC(C)(O/N=C(\C(=O)N[C@@H]1C(=O)N2C(C(=O)[O-])=C(C[n+]3ccccc3)CS[C@H]12)c1csc(N)n1)C(=O)O ?
**A:** ≤ 1 µg/mL

**Q:** Which MIC is listed for C[C@@H](O)[C@H]1C(=O)N2C(C(=O)O)=C(S[C@@H]3CN[C@H](C(=O)N(C)C)C3)[C@H](C)[C@H]12 ?
**A:** ≤ 0.5 µg/mL
